Test system: barnyardgrass (Echinochloa crus-galli)
Assay: Test C greenhouse herbicide test, pre- and postemergence
Assay type: in vivo
Settings: Preemergence, 62 g ai/ha; scale 0 to 100, 0 is no effect, 100 is complete control
Lab note: cut-off is 30. Strictly less in Plant response rating, Barnyardgrass is t. Exactly 30 or more is f.

Inquiry: Confirm or reject: Plant response rating, Barnyardgrass of "CC(=O)Oc1c(C)nn(C)c(=O)c1-c1c(C)sc2ccc(C(F)(F)F)cc12" lies strictly below 30
Reply text: t

Inquiry: Consider next the compound "Cc1nn(C)c(=O)c(-c2ccc(Cl)c3ccccc23)c1O" in the same way.
Reply text: f

Inquiry: Now consider "Cc1ccc2sc(Br)c(-c3c(O)c(C)nn(C)c3=O)c2c1" and answer again.
Reply text: t

Inquiry: Moving on to "COC(=O)Oc1c(C)nn(C)c(=O)c1-c1c(C)sc2ccc(C)cc12"
Reply text: f

Inquiry: And the next one, "CCCC(=O)Oc1c(C)nn(C)c(=O)c1-c1c(CC)sc2ccc(C)cc12" ?
Reply text: f

Inquiry: Next record, please: "COC(=O)Oc1c(C)nn(C)c(=O)c1-c1ccc(Br)c2ccccc12"
Reply text: f

* * *

Tested on: soybean (Glycine max)
Assay: Test E greenhouse herbicide test, pre- and postemergence
Assay type: in vivo
Conditions: Preemergence, 250 g ai/ha; visual, scale 0 no effect to 100 complete control
Description: […]
Measured Metric: Plant response rating, Soybean
I only need the number, thanks.

Inquiry: Can you share its Plant response rating, Soybean? I mean this compound: "Cc1nn(C)c(=O)c(-c2ccc(Br)c3ccccc23)c1O"
Reply text: 70

Inquiry: Please answer likewise for "Cc1nn(C)c(=O)c(-c2ccc(F)c3ccccc23)c1O"
Reply text: 65

Inquiry: // next record "Cc1cc2ccccc2c(-c2c(O)c(C)nn(C)c2=O)c1C"
Reply text: 0

Inquiry: Also check "Cc1ccc2sc(Br)c(-c3c(O)c(C)nn(C)c3=O)c2c1"
Reply text: 50

* * *

Assignment: determine reported Lambsquarters plant response rating for the given molecules.
Test system: lambsquarters (Chenopodium album)
Experiment: Test C greenhouse herbicide test, pre- and postemergence
Assay type: in vivo
Conditions: Postemergence, 31 g ai/ha; 0 to 100 scale (0 no effect, 100 complete control)
Give only the figure.

Inquiry: Fill in the blank: the reported Lambsquarters plant response rating of Cc1nn(C)c(=O)c(-c2cccc3ccccc23)c1O [Compound 11] is ____.
Reply text: 80

Inquiry: Try CCc1ccc2ccccc2c1-c1c(O)c(C)nn(C)c1=O [Compound 32] next.
Reply text: 85

Inquiry: What about this molecule? Cc1nn(C)c(=O)c(-c2ccc(Br)c3ccccc23)c1O [Compound 75]
Reply text: 100

Inquiry: Also Cc1cc(C)c2ccccc2c1-c1c(O)c(C)nn(C)c1=O [Compound 21] ?
Reply text: 85

Inquiry: // next record Cc1ccc2ccccc2c1-c1c(OC(=O)OC(C)C)c(C)nn(C)c1=O [Compound 72]
Reply text: 85

Inquiry: Then this molecule: Cc1cc2ccccc2c(-c2c(O)c(C)nn(C)c2=O)c1C [Compound 34]
Reply text: 90

Inquiry: Please give the result for Cc1ccc2ccccc2c1-c1c(O)c(I)nn(C)c1=O [Compound 29] too.
Reply text: 80

Inquiry: Query CCc1sc2ccc(C)cc2c1-c1c(O)c(C)nn(C)c1=O [Compound 47] next
Reply text: 85

Inquiry: And the next one, CCc1oc2ccc(C)cc2c1-c1c(O)c(C)nn(C)c1=O [Compound 10] ?
Reply text: 50

Inquiry: Moving on to Cn1nc(Br)c(O)c(-c2cccc3ccccc23)c1=O [Compound 20]
Reply text: 80

* * *

Provide the recorded Plant response rating, Galium for the entries that follow.
Test system: galium (catchweed bedstraw, Galium aparine)
Experiment: Test C greenhouse herbicide test, pre- and postemergence
Format: in vivo
Conditions: Preemergence, 31 g ai/ha; scale 0 to 100, 0 is no effect, 100 is complete control
Answer field: number only, no words.

Inquiry: For the compound shown here, "Cc1cc(C)c2ccccc2c1-c1c(O)c(C)nn(C)c1=O" , give the reported Plant response rating, Galium.
Reply text: 98

Inquiry: Record: "COC(=O)Oc1c(C)nn(C)c(=O)c1-c1ccc(Br)c2ccccc12"
Reply text: 90

Inquiry: Field entry: "Cc1nn(C)c(=O)c(-c2c(C)sc3ccc(Br)cc23)c1O"
Reply text: 90

Inquiry: Now give it for "Cc1nn(C)c(=O)c(-c2c(C)sc3c(C)cc(Cl)cc23)c1O" too.
Reply text: 90

Inquiry: Input "Cc1ccc2sc(Br)c(-c3c(O)c(C)nn(C)c3=O)c2c1"
Reply text: 95

* * *

System: crabgrass, Brazilian (Brazilian crabgrass, Digitaria horizontalis)
Assay: Test E greenhouse herbicide test, pre- and postemergence
Assay type: in vivo
Conditions: 250 g ai/ha, Postemergence; scale 0 to 100 (0 no effect, 100 complete control)
For each entry below, report its Plant response rating, Crabgrass, Brazil value.
Provide a numeric answer; units are not to be included.

Inquiry: What measured Plant response rating, Crabgrass, Brazil is associated with "Cc1cc(C)c2sc(C)c(-c3c(O)c(C)nn(C)c3=O)c2c1" on crabgrass, Brazilian (Brazilian crabgrass, Digitaria horizontalis)?
Reply text: 15

Inquiry: Consider next the compound "CCc1sc2ccc(C)cc2c1-c1c(O)c(C)nn(C)c1=O" in the same way.
Reply text: 40

Inquiry: Next compound: "Cc1nn(C)c(=O)c(-c2ccc(F)c3ccccc23)c1O"
Reply text: 50

Inquiry: Proceed to "Cc1nn(C)c(=O)c(-c2ccc(Br)c3ccccc23)c1O"
Reply text: 50

* * *

Test system: ragweed (common ragweed, Ambrosia elatior)
Experiment: Test C greenhouse herbicide test, pre- and postemergence
Format: in vivo
Settings: Preemergence, 125 g ai/ha; scale 0 to 100, 0 is no effect, 100 is complete control
Measured Metric: Plant response rating, Ragweed
Provide a numeric answer; units are not to be included.

Inquiry: // fetch ragweed (common ragweed, Ambrosia elatior) Plant response rating, Ragweed for "CCc1sc2c(C)cc(C)cc2c1-c1c(O)c(C)nn(C)c1=O"
Reply text: 100

Inquiry: Consider next the molecule "CCc1sc2ccc(C)cc2c1-c1c(O)c(C)nn(C)c1=O" in the same way.
Reply text: 98

Inquiry: Another: "Cc1ccc2ccccc2c1-c1c(O)c(I)nn(C)c1=O"
Reply text: 85

Inquiry: Same read-out for "Cc1nn(C)c(=O)c(-c2ccc(Br)c3ccccc23)c1O" ?
Reply text: 90

* * *

Kindly supply the reported Plant response rating (scale of 0 to 100), Oilseed Rape values for the records listed here.
System: oilseed rape (Brassica napus)
Test: Test D controlled growth environment herbicide test, pre- and postemergence
Type: in vivo
Conditions: Preemergence, 31 g ai/ha
Answer as a number with no unit attached.

Inquiry: Need Plant response rating (scale of 0 to 100), Oilseed Rape of Cc1nn(C)c(=O)c(-c2cccc3ccc(Br)cc23)c1O [Compound 126] , thanks.
Reply text: 0

Inquiry: Next record, please: Cc1cc2ccccc2c(-c2c(O)c(C)nn(C)c2=O)c1C [Compound 34]
Reply text: 10

Inquiry: Repeat with CCc1sc2ccc(C)cc2c1-c1c(O)c(C)nn(C)c1=O [Compound 47]
Reply text: 0

Inquiry: Now this one: Cc1nn(C)c(=O)c(-c2ccc(Br)c3ccccc23)c1O [Compound 75]
Reply text: 50

Inquiry: Subsequent entry: CCc1sc2c(C)cc(C)cc2c1-c1c(O)c(C)nn(C)c1=O [Compound 57]
Reply text: 0

Inquiry: Queued: Cc1ccc2ccccc2c1-c1c(OC(=O)OC(C)C)c(C)nn(C)c1=O [Compound 72]
Reply text: 5

* * *

Test system: chamomile (scentless chamomile, Matricaria inodora)
Test: Test D controlled growth environment herbicide test, pre- and postemergence
Assay type: in vivo
Settings: Postemergence, 125 g ai/ha; visual rating on scale 0 (no effect) to 100 (complete control), 14 to 21 d
Lab note - cut at 90 for Plant response rating, Chamomile: criterion met if strictly below, criterion not met if not.

Inquiry: Given the entry Cc1ccc2sc(C)c(-c3c(OC(=O)OC(C)C)c(C)nn(C)c3=O)c2c1 [Compound 66] , would its reported Plant response rating, Chamomile be below 90?
Reply text: criterion not met

Inquiry: Ok, now CCCC(=O)Oc1c(C)nn(C)c(=O)c1-c1c(C)sc2ccc(C)cc12 [Compound 105]
Reply text: criterion not met

Inquiry: Now consider Cc1nn(C)c(=O)c(-c2cccc3ccc(Br)cc23)c1O [Compound 126] and answer again.
Reply text: criterion not met

Inquiry: Another compound to check: Cc1nn(C)c(=O)c(-c2ccc(Br)c3ccccc23)c1O [Compound 75]
Reply text: criterion met

Inquiry: Let us now turn to CC(=O)Oc1c(C)nn(C)c(=O)c1-c1c(C)sc2ccc(Cl)cc12 [Compound 108]
Reply text: criterion not met

Inquiry: Again, but for Cc1nn(C)c(=O)c(-c2c(C)sc3c(C)cc(Cl)cc23)c1O [Compound 35]
Reply text: criterion not met

Inquiry: Now give it for Cc1ccc2ccccc2c1-c1c(O)c(Br)nn(C)c1=O [Compound 23] too.
Reply text: criterion met

Inquiry: Input Cc1ccc2ccccc2c1-c1c(OC(=O)OC(C)C)c(C)nn(C)c1=O [Compound 72]
Reply text: criterion met
